This section presents molecules with their documented growth values.
# Test system: DU-145 prostate
# assay remarks: NCI-60 one-dose screen, 48 h (100 = growth as untreated, 0 = no growth, -100 = all killed)
# experimental parameters: 10 µM unless noted
About 83,000 compounds went through this panel and 20% of them were active in at least one assay; those are over-represented in the sample as a whole.
quantity measured: growth (%)

| molecule | readout number |
| --- | --- |
| COc1ccc(/C=C/C(=O)c2ccc(O)c(CN3CCN(c4cc5c(cc4F)c(=O)c(C(=O)O)cn5C4CC4)CC3)c2)cc1 | 27.8 |
| CC[C@@H](C(=O)[C@@H](C)[C@@H](O)[C@H](C)[C@@H]1O[C@@H]([C@@H](CC)C(=O)O)CC[C@@H]1C)[C@H]1OC2(C=C[C@@H](O)[C@]3(CC[C@@](C)([C@H]4CC[C@](O)(CC)[C@H](C)O4)O3)O2)[C@H](C)C[C@@H]1C (some centres not stated) | 45.8 |
| COc1cccc(/C=C2\Oc3cc(OCCN4CCCC4)ccc3C2=O)c1 | 98.5 |
| O=C(/C=C/c1cccc([N+](=O)[O-])c1)c1ccc(O)c(CN2CCN(c3cc4c(cc3F)c(=O)c(C(=O)O)cn4C3CC3)CC2)c1 | 22 |
| N#Cc1c(-c2ccc(Cl)cc2)nc(N=Nc2c(O)[nH]c3ccc(Cl)cc23)nc1N1CCOCC1 | 103 |
| C(=C\c1nccc2c1[nH]c1ccccc12)/c1ccccc1 | 9.25 |
| c1ccc(-c2c(-c3ccccc3)[n+](Cc3ccc4ccccc4c3)c(-c3ccc(-c4nc5ccccc5s4)cc3)n2Cc2ccc3ccccc3c2)cc1 | -95.4 |

---

This section presents compounds with their documented growth values.
# Tested on: MALME-3M melanoma
# assay remarks: NCI-60 one-dose screen, 48 h (100 = growth as untreated, 0 = no growth, -100 = all killed)
# experimental parameters: 10 µM unless noted
This is part of a sample that, as a whole, favours compounds with a hit. Of some 83,000 tested, about 20% had one in any assay.

| compound | growth / % |
| --- | --- |
| COc1ccc(S(=O)(=O)N2CCN(C)CC2)cc1NC(=O)c1[nH]c(C)c2c1CCCCC2=O | 52 |
| CCOC(=O)c1c(C(=O)OCC)c2cc(-c3ccn4c(C(=O)c5ccccc5)c(C(=O)OCC)c(C(=O)OCC)c4c3)ccn2c1C(=O)c1ccccc1 | 87.3 |
| Cn1nc(N)c2cc([C@@H]3Nc4ccc5[nH]ncc5c4[C@H]4C5CCC(C5)[C@@H]34)ccc21 (some centres undefined) | 52.7 |
| COc1ccc(S(=O)(=O)N2CC3(COC3)C2)cc1NC(=O)c1[nH]c(C)c2c1CCCCC2=O | 61.1 |

---

# Test system: A549/ATCC NSCLC
# assay remarks: NCI-60 one-dose screen, 48 h (100 = growth as untreated, 0 = no growth, -100 = all killed)
# experimental parameters: 10 µM unless noted
This is part of a sample that, as a whole, favours compounds with a hit. Of some 83,000 tested, about 20% had one in any assay.
Output Yes for growth not less than 80%; output No otherwise.

| smiles text | measured on | label value |
| --- | --- | --- |
| Cc1nn(-c2ccc(F)cc2)c2ncnc(Oc3ccc(NC(=O)Nc4ccc(Cl)c(C(F)(F)F)c4)cc3)c12 | A549/ATCC NSCLC | Yes |
| Cn1c(=O)[nH]c(=O)c2nc(CCC(=O)NCCC(=O)O)c(=O)[nH]c21 | A549/ATCC NSCLC | Yes |
| NC(=O)c1cc(Br)ccc1NC(=O)/C=C/c1ccccc1 | A549/ATCC NSCLC | No |
| CCOC(=O)c1sc2nc(-c3cccc(OC)c3)nc(N3CCOCC3)c2c1C | A549/ATCC NSCLC | Yes |
| COc1cc2nc(N3CCCC3)nc(NCc3ccccc3)c2cc1OC | A549/ATCC NSCLC | No |
